Measured normalized growth, listed per entry.
measurement-description: chemical genetic growth profiling, strain panel (AID 1159580);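 further: tested at 20 µM; growth read once vehicle control cultures reached saturation at 30 °C; 1 = growth at the plate median or of vehicle wells; lower values mean less growth of the strain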
conditions-used: S. cerevisiae deletion strains, growth OD, locus YOR144C, strain elg1, hits give low values
In all, about 5,500 compounds went through this assay and about 2,000 (36%) were called active. Another 18% or so got no clear call; they are omitted. The list shows a part of the results.

C[N+]1(C)C[C@H](O)[C@H](C(=O)[O-])C1	0.996 (inactive)
CC(C)=CC1C(CO)C1(C)C (stereo not drawn)	0.991 (inactive)

Reported normalized growth ( `COC1=CC(=O)C=C(OC)C1=O` ) = 0.994 (inactive)

Reported normalized growth ( `COc1nc(NC(C)C)nc(NC(C)C)n1` ) = 1.03 (inactive)

Reported normalized growth ( `NC(N)=Nc1ccc(Cl)cc1` ) = 0.984 (inactive)
